tested on: PC-3 prostate; experiment: NCI-60 one-dose screen, 48 h; conditions: 10 µM unless noted
About 83,000 compounds went through this panel and 20% of them were active in at least one assay; those are over-represented in the sample as a whole. Activity calls are given as the source filed them. The calls were made as follows: active = growth percent below 10; inactive = the rest.
Can you answer with just one of these options? true (active), false (inactive)

CCC1(C(C)C)C(=O)NC(=S)NC1=O    false

Could you kindly confirm the outcome this assay logged for "COc1ccc(NC([Se])=NC23CC4CC(CC(C4)C2)C3)cc1" ? true

Could you kindly confirm the outcome this assay logged for C[C@]12CC[C@H]3[C@@H](CC4SC(N)=NC45C/C(=N/NC(N)=O)CC[C@]35C)[C@@H]1CCC2=O (some centres undefined) ? false

Could you kindly confirm the outcome this assay logged for "c1cnc2[nH]cc(-c3csc(-c4cn(CCCCN5CCOCC5)c5ccccc45)n3)c2c1" ? false

====

tested on: IGROV1 ovarian; experiment: NCI-60 one-dose screen, 48 h (100 = growth as untreated, 0 = no growth, -100 = all killed); details: 10 µM unless noted
About 83,000 compounds went through this panel and 20% of them were active in at least one assay; those are over-represented in the sample as a whole.
Returns one of Y or N; Y when growth is >= 60%.

CCOC(=O)[C@@H](C)C[C@H](Cc1ccccc1)NC(=O)c1nc([C@@H](C[C@H](C(C)C)N(C)C(=O)[C@@H](NC(=O)[C@H]2CCCCN2C)C(C)C)OC(C)=O)sc1CCOCc1ccccc1    N
CC(C)OC(=O)[C@H](C)NP(=O)(Oc1ccccc1)C1CCCN(O)C1=O (stereo partly drawn)    Y
CC1(C)[C@H](O)[C@H](F)C[C@@]2(C)Oc3ccc(C(=O)Nc4ccc5c(c4)NC(=O)C54CCN(CCCCC#N)CC4)cc3C[C@H]12    Y
COC(=O)[C@@H](C)C[C@H](Cc1ccccc1)NC(=O)c1csc(CC[C@H](C(C)C)N(C)C(=O)[C@@H](NC(=O)[C@H]2CCCCN2C)C(C)C)n1    N

Is reported growth greater than or equal to 60% here: "O=P(Oc1ccc(Cl)cc1)(N1CC1)N1CC1" Y

Is reported growth greater than or equal to 60% here: "CN[C@]1(c2ccccc2Cl)CCCC[C@H]1NCCCN1CCN(C)CC1" Y

Is reported growth greater than or equal to 60% here: "CC1(C)N=C(N)N=C(N)N1c1ccc(OCCCNC(=O)Nc2ccc(S(=O)(=O)F)cc2)c(Cl)c1" N

Is reported growth greater than or equal to 60% here: CCCCCCCCCCCCCCCCCC1OC[C@@H](COC(=O)O[C@@H](C(=O)O[C@H]2C[C@@]3(O)[C@@H](OC(=O)c4ccccc4)[C@@H]4[C@]5(OC(C)=O)CO[C@@H]5C[C@H](O)[C@@]4(C)C(=O)[C@H](OC(C)=O)C(=C2C)C3(C)C)[C@@H](NC(=O)c2ccccc2)c2ccccc2)O1 (stereo partly drawn) N

====

Each entry below carries its recorded growth.
Test system: SNB-19 CNS
Assay: NCI-60 one-dose screen, 48 h (100 = growth as untreated, 0 = no growth, -100 = all killed)
Conditions: 10 µM unless noted
Protocol: Growth inhibition of the SNB-19 human tumor cell line is measured as a screen for anti-cancer activity. Cells are grown in 96 well plates and exposed to the test compound for 48 hours. Compounds are tested at a single concentration, which is 10^-5 M for most compounds. The reported endpoint is percent growth (GI% or GIPRCNT), where numbers from 0 - 100% represent growth inhibition, and numbers from -100% - 0 represent cell death. For example, a value of 40 represents 60% growth inhibition. […]
The panel holds about 83,000 compounds, 20% with a hit somewhere; the sample as a whole holds those more often.
Numeric only. Scale: %

# example entries with known answers
CC1=C(CNO)C2=C(C)C3(CC3)[C@@](C)(O)C(=O)C2=C1    4.3
COC(C(=O)[C@@H](O)[C@@H](C)O)[C@@H]1Cc2cc3cc(O[C@H]4C[C@@H](O[C@H]5C[C@@H](O)[C@H](O)C(C)O5)[C@H](O)C(C)O4)c(C)c(O)c3c(O)c2C(=O)[C@H]1O[C@H]1C[C@@H](O[C@H]2C[C@@H](O[C@H]3C[C@@H](O)[C@@H](O)C(C)O3)[C@@H](O)C(C)O2)[C@H](O)C(C)O1 (some centres undefined)    11.7
CCOP(=O)(Nc1ccc2c(c1)/C(=N/NC(N)=S)c1ccccc1-2)OCC    94.5
CN1C(=O)C(=Cc2cn(Cc3ccccc3)c3ccccc23)C(=O)N(C)C1=O    90
CC1CCCC(C[N+](C)(C)C)C1=O (centres undefined)    96.6
COc1ccc(C(=O)c2cc(OC)c(OC)c(OC)c2)cc1OC(C)=O    28.3
N#CC1(c2ccccc2)CCN(Cc2ccccc2)CC1    114
C=C(C)[C@@]12OC3(/C=C/C=C/CCCCC)O[C@@H]1[C@@H]1[C@@H]4O[C@]4(CO)[C@@H](O)[C@]4(O)C(=O)C(C)=C[C@H]4[C@@]1(O3)[C@H](C)[C@H]2OC(=O)c1ccccc1    92.8

Lab book: growth of "COc1ccc(/C=C\c2cc(OC)c(OC)c(OC)c2)c(NS(=O)(=O)c2ccc(C)cc2)c1O" noted as 48.1

====

test system: SF-268 CNS; test: NCI-60 one-dose screen, 48 h (100 = growth as untreated, 0 = no growth, -100 = all killed); conditions: 10 µM unless noted
Compounds without any hit were thinned out: in the full panel of roughly 83,000, 20% have a hit.
readout-name: growth (%)
Numeric only. Scale: %

# example entries with known answers
O=C1Nc2ccccc2C2c3cccn3-c3ccccc3CN12 (centres undefined)    75.1
COc1ccc(S(=O)(=O)N(Cc2ccc3c(c2)C=CC(C)(C)O3)c2ccccc2)cc1OC    87.4

Tested on SF-268 CNS, the item "OCc1ccc2c(c1)OCO2" showed growth equal to 100

Tested on SF-268 CNS, the item "COc1ccc(Nc2ccc([N+](=O)[O-])cc2[N+](=O)[O-])cc1CN(CCCl)CCCl" showed growth equal to 24.9

Tested on SF-268 CNS, the item "Fc1c[c-]c(-c2ccccn2)c(F)c1.[CH3-].[Pt+2].c1ccc([PH+](c2ccccc2)c2ccccn2)cc1" showed growth equal to 22.8

Tested on SF-268 CNS, the item "CN(C)CCCOc1ccc2c(c1)c(C(=O)C(=O)NCCO)cn2Cc1ccccc1" showed growth equal to 97.7

Tested on SF-268 CNS, the item "Nc1nnnc2nc[nH]c12" showed growth equal to 28.6

Tested on SF-268 CNS, the item "C1CCC2(CC1)OOCNCOO2" showed growth equal to 97.3

Tested on SF-268 CNS, the item "COC(=O)C12CC(NC(=O)c3csc([C@@H](C[C@H](C(C)C)N(C)C(=O)[C@@H](NC(=O)[C@H]4CCCCN4C)C(C)C)OC(C)=O)n3)(C1)C2" showed growth equal to 22.9

====

test system: M14 melanoma; test: NCI-60 one-dose screen, 48 h (100 = growth as untreated, 0 = no growth, -100 = all killed); conditions: 10 µM unless noted
This is part of a sample that, as a whole, favours compounds with a hit. Of some 83,000 tested, about 20% had one in any assay.
readout-name: growth (%)
Numeric only. Scale: %

# example entries with known answers
Clc1ccc(CSC(Cn2ccnc2)c2ccc(Cl)cc2Cl)cc1 (configuration not stated)    29.7
CC(C)=CC1C(C(=O)OCc2cccc(Oc3ccccc3)c2)C1(C)C (configuration not stated)    95.3
Cc1ccc(S(=O)(=O)F)cc1C(=O)O    110

Tested on M14 melanoma, the item CC1=C2[C@@H](CC1)[C@]1(C)O[C@@](C(C)C)(C[C@H]1O)[C@H]2OC(=O)C1CC1c1ccccc1 (some centres not stated) showed growth equal to 90.9

Tested on M14 melanoma, the item "CCOC(=O)N1CC1" showed growth equal to 96.5

Tested on M14 melanoma, the item "COC(=O)[C@@]1(O)C[C@H]2O[C@]1(C)n1c3ccccc3c3c4c(c5c6ccccc6n2c5c31)C(=O)NC4" showed growth equal to -67.5

Tested on M14 melanoma, the item "CC(=O)O[C@H]1C(=O)[C@@]2(C)[C@H]([C@H](OC(=O)c3ccccc3)[C@]3(O)C[C@H](OC(=O)[C@H](OC(=O)OC[C@H]4COC(C)(C)O4)[C@@H](NC(=O)c4ccccc4)c4ccccc4)C(C)=C1C3(C)C)[C@]1(OC(C)=O)CO[C@@H]1C[C@@H]2O" showed growth equal to -19

Tested on M14 melanoma, the item "CNCc1cccnc1" showed growth equal to 117

Tested on M14 melanoma, the item "COc1cc2c(cc1OCCCCn1c(-c3cccs3)nc3ccccc31)N=C[C@@H]1CCCN1C2=O" showed growth equal to -46.2

Tested on M14 melanoma, the item "CC(=O)O[C@H]1C(=O)[C@@]2(C)[C@H]([C@H](OC(=O)c3ccccc3)[C@]3(O)C[C@H](OC(=O)[C@H](OC(=O)OC[C@@H]4COC(C)(C)O4)[C@@H](NC(=O)c4ccccc4)c4ccccc4)C(C)=C1C3(C)C)[C@]1(OC(C)=O)CO[C@@H]1C[C@@H]2O" showed growth equal to -20

Tested on M14 melanoma, the item CCN(CCO)C(Cc1ccccc1)c1ccccc1 (configuration not stated) showed growth equal to 89

Tested on M14 melanoma, the item "COc1ccc(S(=O)(=O)Nc2c(/C=C\c3cc(OC)c(OC)c(OC)c3)ccc(OC)c2O)cc1OC" showed growth equal to 9.05

Tested on M14 melanoma, the item "C/C(=C\c1ccn(-c2ccccc2N)n1)[C@@H]1C[C@@H]2O[C@]2(C)CCC[C@H](C)[C@H](O)[C@@H](C)C(=O)C(C)(C)[C@@H](O)CC(=O)O1" showed growth equal to 2.49

Tested on M14 melanoma, the item "CCCC[C@H](NC(=O)[C@H]1CCCCN1C)C(=O)N(C)[C@H](C[C@@H](OC(C)=O)c1nc(C(=O)N[C@@H](Cc2ccccc2)C[C@H](C)C(=O)OCC)cs1)C(C)C" showed growth equal to 1.33

Tested on M14 melanoma, the item "C=C1[C@@H](C)[C@H]2[C@H](Cc3ccccc3)NC(=O)[C@]23[C@@H](O)/C=C/[C@@](C)(O)C(=O)[C@@H](C)C/C=C/[C@H]3[C@@H]1O" showed growth equal to 68.8

Tested on M14 melanoma, the item "COc1cc([C@@H]2c3cc4c(cc3[C@H](OC(C)=O)[C@H]3COC(=O)[C@H]23)OCO4)cc(OC)c1OC" showed growth equal to 6.87

Tested on M14 melanoma, the item "Cc1ccc(S(=O)(=O)C(Cl)(Cl)Cl)cc1" showed growth equal to 94.6

Tested on M14 melanoma, the item "NC(=Nc1ccccc1)N[N+](=O)[O-]" showed growth equal to 99.9

Tested on M14 melanoma, the item "CC(=O)O[C@H](C[C@H](C(C)C)N(C)C(=O)[C@@H](NC(=O)[C@H]1CCCCN1C)C(C)C)c1nc(C(=O)N[C@@H](Cc2ccccc2)C[C@H](C)C(=O)O)c(C(C)C)s1" showed growth equal to 4.52

Tested on M14 melanoma, the item O=C(CC1(O)C(=O)N(Cc2ccccc2)c2ccc(Br)cc21)c1ccc(C(=O)NCC2CCC3(CC2)OOC2(CCCCC2)OO3)cc1 (configuration not stated) showed growth equal to 41.9

Tested on M14 melanoma, the item CN1CCC(O)(c2ccc(F)cc2)C(C(=O)c2ccc(F)cc2)C1 (configuration not stated) showed growth equal to 106

Tested on M14 melanoma, the item "O=C(CCCCCNC1=CC(=O)c2ccccc2C1=O)NCCC[Te]c1ccccc1" showed growth equal to -37.6
